Measured pKd values are reported for all entries that follow.
# tested.system: T1, SARS-CoV2 Spike ecto foldon Trimer expressed with a C-terminal myc-myc-hexahistidine (SARS-CoV-2, UniProt P0DTC2 14-1213)
# T1 construct: extracellular domain
# assay.protocol: SPR Biacore, mAb captured by anti-hFc, 37C
Scale for pKd: -log10 of concentration given in mol/L; no unit attached.

mAb14234 (antibody, V domains shown) VH: QVQLVESGGGVVQPGRSLRLSCAASGFTFSSYGIHWVRQAPGKGLEWVAIIWYDGSEKYYADSVKGRFTISRDNSKNTLFLQMNSLEAEDTAVYYCARGPDLLTGYYNYFYYGMDVWGQGTTVTVSS VL: QSVLTQPPSVSGAPGQRVTISCTGSSSNIGIGYDVHWYQQLPGTVPKLLIYGNTNRPSGVPDRFSGSKSGTSASLAITGLQAEDEADYYCQSYDSSLSSYVFGTGTKVTVLG | 9.99

Report pKd for mAb14312 (antibody, V domains shown) VH: EVQLVESGGGLVQPGGSLRLSCAASGFTVSRSYMTWVRQAPGKGLEWVSVIFTGGRTDHADSVKGRFTISRHNSKNTLYLQMNSLRTEDTAVYYCARVAIVGATGAFDIWGQGTMVTVSS VL: QSVLTQPPSVSGAPGQRVTISCTGSSSNIGAGDDVHWYQQLPGTAPKLLIYGNSNRPSGVPDRFSGSKSGTSASLAITGLQAEDEADYYCQSYDSSLSGSVVFGGGTKLTVLG please.
10.25
